Here the recorded Emax is given for each entry.
Biological target: μ-opioid receptor (Homo sapiens)
Experiment: μ-opioid receptor [35S]GTPγS functional assay, U-2 OS cells
Format: biochemical
Design: expressed in transfected cells; host or cells: U-2 OS
Conditions: U-2 OS cells; relative to DAMGO; read-out: GTPγS μ Emax
The figure you give is taken to be in %; do not add the unit.

Example entries and their recorded answers appear below.
CN(C(=O)Nc1ccc(C#N)cc1)C1C2Cc3ccc(O)cc3[C@@]1(C)CCN2CCc1ccccc1 (stereo in doubt) [Compound 87] = 99.3
CN1CC[C@]2(C)c3cc(O)ccc3CC1C2N(C)c1ccc(CCS(N)(=O)=O)cc1 (stereo in doubt) [Compound 51] = 113
CN1CC[C@@]2(C)c3cc(O)ccc3C[C@@H]1[C@@H]2N(C)C(=O)/C=C/c1cccnc1 [Compound 122] = 102
CN1CC[C@@]2(C)c3cc(O)ccc3C[C@@H]1[C@@H]2NCCc1ccc(S(N)(=O)=O)cc1 [Compound 92] = 97.3
CN1CC[C@@]2(C)c3cc(O)ccc3C[C@@H]1[C@@H]2N(C)C(=O)c1ccccc1 [Compound 119] = 100

# return Emax for CN1CC[C@@]2(C)c3cc(O)ccc3C[C@@H]1[C@H]2NCCCNC(=O)OC(C)(C)C [Compound 111] , test system: μ-opioid receptor (Homo sapiens)
64

GET Emax where system = μ-opioid receptor (Homo sapiens) and item = CCC[C@@]12CCN(C)C(Cc3ccc(O)cc31)[C@H]2N(C)C(=O)Nc1ccc(C#N)cc1 [Compound 137]
50.3

For μ-opioid receptor (Homo sapiens), give the measured Emax of the entry C[C@]12CCN(CC3CC3)[C@H](Cc3ccc(O)cc31)[C@H]2NCCc1ccc(S(N)(=O)=O)cc1 [Compound 97]
2.5

Write down the reported Emax (system: μ-opioid receptor (Homo sapiens)) of CN1CC[C@@]2(C)c3cc(O)ccc3C[C@@H]1[C@@H]2NCCc1ccc(Cl)c(Cl)c1 [Compound 98]
104

Report measured Emax on μ-opioid receptor (Homo sapiens); entry: CN1CC[C@]2(C)c3cc(O)ccc3C[C@@H]1[C@@H]2N(C)C(=O)c1ccccc1 [Compound 39]
101

Send back μ-opioid receptor (Homo sapiens) Emax of CN1CC[C@@]2(C)c3cc(O)ccc3C[C@@H]1[C@H]2NCCc1ccc(C(C)(C)C)cc1 [Compound 105] only.
32.7

Enter recorded Emax with μ-opioid receptor (Homo sapiens) for CN1CC[C@]2(C)c3cc(O)ccc3CC1C2N(C)C(=O)CCC(=O)O (stereo in doubt) [Compound 28] here.
74.7

Give measured Emax for CN1CC[C@@]2(C)c3cc(O)ccc3C[C@@H]1[C@H]2NCCc1c[nH]c2ccccc12 [Compound 110] (μ-opioid receptor (Homo sapiens)).
92.3

Return reported Emax for target or system μ-opioid receptor (Homo sapiens), item CN1CC[C@@]2(C)c3cc(O)ccc3C[C@@H]1[C@H]2N(C)CCc1ccc(S(N)(=O)=O)cc1 [Compound 109] .
100

Please respond with reported Emax (system μ-opioid receptor (Homo sapiens)) for CN1CC[C@@]2(C)c3cc(O)ccc3C[C@@H]1[C@H]2NCCc1ccc(Cl)c(Cl)c1 [Compound 99] .
71

----------
Biological target: μ-opioid receptor (Homo sapiens)
Assay: μ-opioid receptor [35S]GTPγS functional assay, U-2 OS cells
Assay type: biochemical
Set-up: expressed in transfected cells; host or cells: U-2 OS
Conditions: U-2 OS cells; relative to DAMGO; read-out: GTPγS μ Emax
// Emax lookup, one value per entry
Answer format: numeric, % implied, no suffix.

Solved entries (count: 10):
COc1ccc(CCN[C@H]2[C@H]3Cc4ccc(O)cc4[C@]2(C)CCN3C)cc1 = 102
CN1CC[C@@]2(C)c3cc(O)ccc3C[C@@H]1[C@@H]2N(C)C(=O)Nc1nc2cc(F)ccc2s1 = 82
CN1CC[C@]2(C)c3cc(O)ccc3CC1[C@@H]2N1Cc2ccccc2NC1=O = 71.3
CN1CC[C@]2(C)c3cc(O)ccc3CC1C2N(C)C(=O)Nc1ccc(C#N)cc1 (stereo in doubt) = 109
CN(C(=O)c1ccsc1)[C@@H]1[C@H]2Cc3ccc(O)cc3[C@]1(C)CCN2CC1CC1 = 20.7
COc1ccc2c(c1)[C@@]1(C)CCN(CC3CC3)[C@H](C2)[C@H]1N(C)C(=O)/C=C\c1ccoc1 = 14.7
CN1CC[C@@]2(C)c3cc(O)ccc3C[C@@H]1[C@H]2N(C)C(=O)Cc1ccccc1 = 93.7
CCN(C(=O)/C=C/c1ccoc1)C1C2Cc3ccc(OC)cc3[C@@]1(C)CCN2C (stereo in doubt) = 102
CN1CC[C@]2(C)c3cc(O)ccc3C[C@H]1[C@H]2NCCc1ccc(S(N)(=O)=O)cc1 = 80.7
CN1CC[C@]2(C)c3cc(O)ccc3C[C@@H]1[C@H]2Nc1ccc(CCS(N)(=O)=O)cc1 = 86.5

Please look at this molecule and report its Emax: CN(C(=O)Nc1ccc(C#N)cc1)[C@H]1C2Cc3ccc(O)cc3[C@@]1(C)CCN2CC1CCC1
85.7

Answer with the recorded Emax of CN(C(=O)Nc1ccc(C(C)(C)C)cc1)[C@@H]1[C@H]2Cc3ccc(O)cc3[C@]1(C)CCN2CC1CC1 only.
22.3

Supply recorded Emax for CN1CC[C@@]2(C)c3cc(O)ccc3C[C@@H]1[C@@H]2N(C)C(=O)c1ccsc1 here.
98

Tell me Emax reported for C[C@]12CCN(CC3CC3)[C@H](Cc3ccc(O)cc31)[C@H]2NCC1CCNCC1
2.5

Quick one: give measured Emax for CN1CC[C@@]2(C)c3cc(O)ccc3C[C@@H]1[C@H]2NCCc1ccncc1
77.5

Given the molecule CN1CC[C@@]2(C)c3cc(O)ccc3C[C@@H]1[C@@H]2NCCc1cccs1 , write its reported Emax.
105

Name the recorded Emax of the item COc1ccc2c(c1)[C@@]1(C)CCN(CC3CC3)[C@H](C2)[C@H]1N(C)C(=O)/C=C/c1ccoc1 in your answer.
19.3

In one line, give reported Emax of the entry CN1CC[C@@]2(C)c3cc(O)ccc3C[C@@H]1[C@@H]2NC(=O)Nc1nc2cc(F)ccc2s1 .
87

Respond only with Emax recorded for CN1CC[C@@]2(C)c3cc(O)ccc3C[C@@H]1[C@H]2NCCNC(=O)OC(C)(C)C
83.7

Answer with reported Emax of CN1CC[C@@]2(C)c3cc(O)ccc3C[C@@H]1[C@@H]2N(C)CC1CCN(C(=O)OC(C)(C)C)CC1
94.3

Indicate the recorded Emax value for this molecule: CN1CC[C@@]2(C)c3cc(O)ccc3C[C@@H]1[C@@H]2N(C)C(=O)C1CCCCC1
91.7

----------
Molecular target: μ-opioid receptor (Homo sapiens, UniProt P35372)
Sequence (P35372 whole entry, species assumed): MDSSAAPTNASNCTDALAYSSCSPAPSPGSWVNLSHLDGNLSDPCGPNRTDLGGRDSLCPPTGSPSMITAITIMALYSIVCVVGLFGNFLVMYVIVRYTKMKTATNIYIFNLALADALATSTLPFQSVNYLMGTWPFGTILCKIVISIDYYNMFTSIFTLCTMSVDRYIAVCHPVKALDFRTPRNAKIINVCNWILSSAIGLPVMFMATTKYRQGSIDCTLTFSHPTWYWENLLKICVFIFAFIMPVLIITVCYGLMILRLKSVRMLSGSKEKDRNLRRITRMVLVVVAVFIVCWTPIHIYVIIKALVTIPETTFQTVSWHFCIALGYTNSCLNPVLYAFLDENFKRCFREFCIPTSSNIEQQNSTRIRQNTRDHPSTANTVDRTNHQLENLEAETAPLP
Experiment: μ-opioid receptor [35S]GTPγS functional assay, U-2 OS cells
Type: biochemical
Parameters: expressed in transfected cells; host or cells: U-2 OS
Details: GTPγS μ EC50, U-2 OS cells; bound in μM
Item-by-item account of EC50

CN1CC[C@@]2(C)c3cc(O)ccc3C[C@@H]1[C@H]2NCC1CCN(C(=O)OC(C)(C)C)CC1 = > 20 µM

Read the next record carefully.
Give EC50 for the following compound: C[C@]12CCN(CC3CC3)[C@H](Cc3ccc(O)cc31)[C@@H]2NC(=O)c1ccsc1
> 20 µM

----------
molecules and their reported Ki
Target: κ opioid receptor (Homo sapiens, UniProt P41145)
Sequence (P41145 whole entry): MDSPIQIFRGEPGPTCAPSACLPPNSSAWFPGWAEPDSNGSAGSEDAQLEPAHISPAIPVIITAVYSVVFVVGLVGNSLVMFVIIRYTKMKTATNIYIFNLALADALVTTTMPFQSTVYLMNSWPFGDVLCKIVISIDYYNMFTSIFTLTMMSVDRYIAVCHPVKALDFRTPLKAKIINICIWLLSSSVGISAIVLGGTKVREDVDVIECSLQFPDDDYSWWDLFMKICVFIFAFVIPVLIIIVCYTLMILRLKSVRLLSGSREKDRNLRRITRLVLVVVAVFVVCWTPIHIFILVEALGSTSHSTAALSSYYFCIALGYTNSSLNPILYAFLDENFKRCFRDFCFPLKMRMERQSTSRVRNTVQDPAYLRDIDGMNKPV
Experiment: biochemical
Assay type: binding
Set-up: expressed in transfected cells; host or cells: HEK 293 (in-house membrane prep)
Details: HEK-293 or CHO cells

These solved cases illustrate the format of a correct answer.
CN1CC[C@]2(C)c3cc(O)ccc3CC1[C@@H]2COc1cc(C(N)=O)ccn1 [Compound 53] = 701 nM
CN1CC[C@]2(C)c3cc(O)ccc3CC1C2N(C)C(=O)NCCC(=O)O (stereo in doubt) [Compound 68] = 799 nM
CN1CC[C@@]2(C)c3cc(O)ccc3C[C@@H]1[C@@H]2NCC1CCN(C(=O)OC(C)(C)C)CC1 [Compound 30] = 7.66 nM
CN1CC[C@]2(C)c3cc(O)ccc3C[C@@H]1[C@H]2N(C)C(=O)Nc1ccc(C#N)cc1 [Compound 79] = 3140 nM

Please find the next molecule below.
In one line, give reported Ki of the entry CN1CC[C@]2(C)c3cc(O)ccc3CC1[C@@H]2COc1cccc(C(=O)O)c1 [Compound 40] .
3120 nM

----------
Molecular target: UniProtKB P41145
Test: κ-opioid receptor [35S]GTPγS functional assay, U-2 OS cells
Format: biochemical
Parameters: expressed in transfected cells; host or cells: U-2 OS (in-house membranes)
Details: U-2 OS cells; read-out: GTPγS κ EC50
pEC50: −log10 of the molar value.
Criterion: pEC50 meeting or surpassing 8. Met: T. Not met: F.

Worked set:
CN1CC[C@@]2(C)c3cc(O)ccc3C[C@@H]1[C@@H]2N(C)C(=O)C1CCCCC1 [Compound 121] = F
CN([C@@H]1[C@H]2Cc3ccc(O)cc3[C@]1(C)CCN2CC1CC1)S(=O)(=O)c1cccc(C(F)(F)F)c1 [Compound 130] = F

pEC50 >= 8 for C[C@]12CCN(CC3CC3)[C@H](Cc3ccc(O)cc31)[C@H]2NS(=O)(=O)c1cccc(C(F)(F)F)c1 [Compound 128] ?
T

For this compound, is measured pEC50 8 or higher? CN1CC[C@@]2(C)c3cc(O)ccc3C[C@@H]1[C@H]2NCCNC(=O)OC(C)(C)C [Compound 112]
F

Does pEC50 meet or surpass 8 for CC(C)CCC(=O)N(C)[C@H]1[C@H]2Cc3ccc(O)cc3[C@]1(C)CCN2C [Compound 116] ?
F
